tested on: Staphylococcus epidermidis; assay: In vitro broth dilution minimal inhibitory concentration (standard microdilution method); format: cell-based; conditions: 24 h, Mueller-Hinton broth, 24-hour, read-out: Microdilution Broth MIC
For each of the molecules below, state its MIC.
Give bare numbers, in µg/mL.

Known MIC results, listed for orientation:
Give MIC; test system Staphylococcus epidermidis; molecule [N-]=[N+]=NCC1CN(c2ccc(S(N)(=O)=O)cc2)C(=O)O1 (single isomer, unassigned) [Example 3]
25

Give MIC; test system Staphylococcus epidermidis; molecule CC(=O)NCC1CN(c2ccc(SCC#N)cc2)C(=O)O1 (single isomer, unassigned) [Example 154]
3.2

Give MIC; test system Staphylococcus epidermidis; molecule C=C(C)c1ccc(N2CC(CNC(C)=O)OC2=O)cc1 (centres unmarked) [Example 97]
3.1

Look at each molecule and report its MIC.
1. CC(=O)c1ccc(N2CC(CNC(=O)C(Cl)Cl)OC2=O)cc1 (centres unmarked) [Example 172]
2. CC(C)c1ccc(N2CC(CNC(=O)CN)OC2=O)cc1 (racemic) [Example 157]
3. CCC(=O)NCC1CN(c2ccc(S(C)(=O)=O)cc2)C(=O)O1 (centres unmarked) [Example 27]
4. CC(=O)NCC1CN(c2ccc(N)cc2)C(=O)O1 (single isomer, unassigned) [Example 149]
5. CNS(=O)(=O)c1ccc(N2CC(CNC(C)=O)OC2=O)cc1 (centres unmarked) [Example 46]

[4, 50, 6.3, 100, 12.5]

====

tested on: Staphylococcus epidermidis; experiment: In vitro broth dilution minimal inhibitory concentration (standard microdilution method); assay type: cell-based; settings: 24 h, Mueller-Hinton broth, 24-hour, read-out: Microdilution Broth MIC
For each of the compounds below, state its MIC.
One number for each entry, in µg/mL.

Give MIC; test system Staphylococcus epidermidis; compound C[S+]([O-])c1ccc(N2CC(CNC(=O)CCCl)OC2=O)cc1 (centres unmarked)
50

Give MIC; test system Staphylococcus epidermidis; compound CC(=O)NCC1CN(c2ccc([S+](C)[O-])cc2)C(=O)O1 (single isomer, unassigned)
10

Give MIC; test system Staphylococcus epidermidis; compound C=CC(=O)NCC1CN(c2ccc(SC)cc2)C(=O)O1 (centres unmarked)
12.5

Okay, next one:
Give MIC; test system Staphylococcus epidermidis; compound CC(=O)NCC1CN(c2ccc(C(F)(F)F)cc2)C(=O)O1 (centres unmarked)
12.5

====

System: Staphylococcus aureus
Assay: In vivo efficacy of compounds administered subcutaneously in mouse intraperitoneal infections
Details: sc, 168 h; mouse i.p. Staphylococcus aureus infection; subcutaneous; dosed at infection and 4 h post-infection; 7 days; read-out: ED50 (50 percent effective dose)
Protocol: Determinations of in vivo efficacy are performed by inoculating mice intraperitoneally with cultures of the infecting organism diluted to produce 90-100% mortality in control animals within twenty-four hours. The diluents used were trypticase soy broth for E. coli and 5% aqueous hog gastric mucin for Staphylococcus aureus infections. […]
ASSAY_READOUT: log10(ED50) (log10 of the value in mg/kg)
All values: log10 ED50 [mg/kg].

Let me know recorded log10(ED50) for CC(=O)NC[C@H]1CN(c2ccc([S@@+](C)[O-])cc2)C(=O)O1 [Example 180] , thanks.
-0.10

Let me know recorded log10(ED50) for CC(=O)NCC1CN(c2ccc(NC(C)=O)cc2)C(=O)O1 (single isomer, unassigned) [Example 150] , thanks.
1.10

Let me know recorded log10(ED50) for CC(=O)NCC1CN(c2ccc(C(=O)C=CN(C)C)cc2)C(=O)O1 (single isomer, unassigned) [Example 162] , thanks.
1.32

Let me know recorded log10(ED50) for CC(=O)NCC1CN(c2ccc(Br)cc2)C(=O)O1 (stereo not drawn) [Example 86] , thanks.
0.67

Let me know recorded log10(ED50) for COC(=O)NCC1CN(c2ccc(C(C)C)cc2)C(=O)O1 (stereo not drawn) [Example 39] , thanks.
0.74

Let me know recorded log10(ED50) for CC(=O)NCC1CN(c2ccc(C)cc2)C(=O)O1 (stereo not drawn) [Example 79] , thanks.
1.93

Let me know recorded log10(ED50) for CC(=O)NCC1CN(c2ccc([S+](C)[O-])cc2)C(=O)O1 (single isomer, unassigned) [Example 120] , thanks.
0.45

Others:
Let me know recorded log10(ED50) for CC(C)c1ccc(N2CC(CN)OC2=O)cc1 (stereo not drawn) [Example 17] , thanks.
1.40

Source listed as patent US4705799A.
